Cited source: PubChem BioAssay

z-score values, listed per item
test: budding yeast growth modifiers under rapamycin – strain BY4716, OD600, 96 h, primary screen (AID 1091); further: test concentration not given here; settings: S. cerevisiae BY4716 + rapamycin, higher = more signal, called active from +8 up or from −8 down
// keep it numeric: no unit symbol after the value

A selection of reference data follows.
[in] Need z-score of `CCCC[C@@H](O)C1=C(COc2ccccc2)Cn2c(=O)n(-c3ccccc3)c(=O)n2[C@H]1CO` , thanks.
[out] -1.17

[in] Need z-score of CC1(C)[C@@H]2CC(C(O)C3C=CC4C(=O)N(c5ccccc5)C(=O)C4N3Nc3ccccc3F)=C[C@@H]1C2 (stereo not given in full) , thanks.
[out] -0.382

[in] Need z-score of `NC(=O)NCC#Cc1ccc2c(c1)[C@]1(C(=O)N2)[C@H](c2ccc(O)cc2)N2[C@H](c3ccccc3)[C@H](c3ccccc3)OC(=O)[C@H]2[C@@H]1C(=O)NC[C@H](O)c1ccccc1` , thanks.
[out] -0.0001

***
[in] Need z-score of `C=CCNC(=O)[C@@H]1[C@H]2C(=O)O[C@H](c3ccccc3)[C@H](c3ccccc3)N2[C@H](c2ccc(O)cc2)[C@@]12C(=O)Nc1ccc(C#CCCO)cc12` , thanks.
[out] -0.301

[in] Need z-score of `COCCOC(=O)N1C(=O)[C@@]2(c3cc(C#CC4(O)CCCCCC4)ccc31)[C@H](C(=O)NC[C@H](O)c1ccccc1)[C@H]1C(=O)O[C@H](c3ccccc3)[C@H](c3ccccc3)N1[C@@H]2c1ccc(OCCO)cc1` , thanks.
[out] 5.65

[in] Need z-score of `NC(=O)NCC#Cc1ccc2c(c1)[C@]1(C(=O)N2)[C@H](c2ccc(O)cc2)N2[C@H](c3ccccc3)[C@H](c3ccccc3)OC(=O)[C@H]2[C@@H]1C(N)=O` , thanks.
[out] 0.183

[in] Need z-score of `CCOC(=O)C[C@H]1[C@H](OC(=O)c2cc3ccccc3oc2=O)[C@@H](NC(=O)c2ccc3ccccc3n2)c2cc(OCCCO)ccc2N1C(=O)c1ccc2ccccc2n1` , thanks.
[out] -0.273
